# Tested Target: Androgen receptor (Homo sapiens) (UniProt P10275)
# Sequence (P10275 whole entry, looked up): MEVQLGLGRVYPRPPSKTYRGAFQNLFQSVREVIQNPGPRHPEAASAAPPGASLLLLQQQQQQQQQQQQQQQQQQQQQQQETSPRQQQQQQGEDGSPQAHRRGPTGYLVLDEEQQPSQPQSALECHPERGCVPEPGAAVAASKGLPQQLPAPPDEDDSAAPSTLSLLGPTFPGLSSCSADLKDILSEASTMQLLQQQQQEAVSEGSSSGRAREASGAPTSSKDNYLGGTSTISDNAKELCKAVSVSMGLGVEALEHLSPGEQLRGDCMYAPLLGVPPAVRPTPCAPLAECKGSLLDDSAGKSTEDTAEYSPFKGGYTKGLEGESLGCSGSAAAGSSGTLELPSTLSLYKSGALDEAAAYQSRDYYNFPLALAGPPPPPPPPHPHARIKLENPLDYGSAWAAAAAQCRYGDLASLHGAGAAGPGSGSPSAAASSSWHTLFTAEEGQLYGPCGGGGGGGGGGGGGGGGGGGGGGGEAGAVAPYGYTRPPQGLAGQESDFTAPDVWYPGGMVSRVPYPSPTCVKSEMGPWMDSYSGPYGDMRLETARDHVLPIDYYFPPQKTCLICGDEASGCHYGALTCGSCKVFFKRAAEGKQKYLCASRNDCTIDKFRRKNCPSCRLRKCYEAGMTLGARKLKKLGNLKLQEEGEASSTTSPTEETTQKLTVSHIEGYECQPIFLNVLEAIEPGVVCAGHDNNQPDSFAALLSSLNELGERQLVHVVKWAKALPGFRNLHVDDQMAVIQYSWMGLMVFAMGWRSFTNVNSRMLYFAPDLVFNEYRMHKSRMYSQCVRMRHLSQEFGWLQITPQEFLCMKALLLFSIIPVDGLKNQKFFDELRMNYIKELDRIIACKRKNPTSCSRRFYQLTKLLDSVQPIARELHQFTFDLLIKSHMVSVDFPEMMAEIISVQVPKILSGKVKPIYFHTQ
# Test Protocol: qHTS assay to identify small molecule agonists of the androgen receptor (AR) signaling pathway (AID 743036)
# Study Conditions: HEK293 AR-UAS-bla GripTite, beta-lactamase FRET ratio, 16 h; series mostly up to 62.4 µM
Results filed as inconclusive are left out. Activity calls are given as the source filed them. The call rests on the fitted dose curve; in most records, active means well fitted activation curve with a large enough effect in the signal ratio in the repeat runs, with a control signal flat (not every such curve was filed as active); inconclusive means weak or mixed curves, or effect the other way; inactive means no such curve, though single readings can be large or run the other way; the % refers to the signal ratio.
Outcomes: active, inactive

| Molecule | Qualitative Label |
| --- | --- |
| O=C(/C=C/c1ccccc1)OC/C=C/c1ccccc1 | inactive |
| ClCCl | inactive |
| Nc1ccc(C(=O)O)c(O)c1 | inactive |
| CCCCC(CC)CN1CN(CC(CC)CCCC)CC(C)(N)C1 (stereo not drawn) | inactive |
| CC(C)OC(=O)C(O)(CC(=O)O)CC(=O)O | inactive |
| CCCCCCCCCCOC(=O)c1ccccc1C(=O)OCCCCCCCC | inactive |
| CC(=O)c1ccc(C(C)=O)cc1 | inactive |
| O=S(=O)(O)c1ccc(Nc2nc(Nc3ccc(/C=C/c4ccc(Nc5nc(Nc6ccc(S(=O)(=O)O)cc6)nc(N(CCO)CCO)n5)cc4S(=O)(=O)O)c(S(=O)(=O)O)c3)nc(N(CCO)CCO)n2)cc1 | active |
| CCN(CC)c1ccc2c(-c3ccc(S(=O)(=O)O)cc3S(=O)(=O)[O-])c3ccc(=[N+](CC)CC)cc-3oc2c1 | inactive |
| CCCCCCOC(=O)C(C)CC (stereo not drawn) | inactive |
| c1ccsc1 | active |
| CC(CO)Oc1ccccc1 (stereo not drawn) | inactive |
| O=C(O)Cc1ccccc1Nc1c(Cl)cccc1Cl | inactive |
